Please go through the items and note down their Percent Effect.
- target-of-assay: Chromo domain-containing protein 1 (Saccharomyces cerevisiae (strain ATCC 204508 / S288c) (Baker's yeast))
- experiment-notes: ScCHD-1 Enzyme Inhibition Assay
- Format: functional
- Parameters: scale not given: in the data most compounds retested in dose-response had high values
- condition-notes: 30 µM
Give the quantity in %, number only.

Enquiry: Please look up its Percent Effect: CC(=O)N1CCCN(C(=O)NCCc2ccc(Cl)s2)CC1
Return: 7.14

Enquiry: Please look up its Percent Effect: CN(C(=O)NCCCN1CCCC1)C1CCN(c2ccccc2)C1=O (configuration not stated)
Return: -10.3

Enquiry: Please look up its Percent Effect: Cc1ccc(NCc2cncc3c2CCN(C(=O)C2CC=CC2)C3)nn1
Return: -6.63

Enquiry: Please look up its Percent Effect: COc1cccc(CN2CCCCCC2c2cccs2)c1O (configuration not stated)
Return: -5.25

Enquiry: Please look up its Percent Effect: Cc1cnn(CCNCc2nc(-c3ccccc3Cl)no2)c1
Return: -13.7

Enquiry: Please look up its Percent Effect: CC(C)Cc1cc(C(=O)N2CCCC(n3cncn3)C2)[nH]n1 (configuration not stated)
Return: -22.3

Enquiry: Please look up its Percent Effect: CN1Cc2c(C(=O)Nc3cccnc3)ncn2-c2ccccc2S1(=O)=O
Return: 0.964

Enquiry: Please look up its Percent Effect: CCc1noc(CN2CCCC2c2noc(C3CC3)n2)n1 (configuration not stated)
Return: -9.57

Enquiry: Please look up its Percent Effect: Cc1nc2c(c(NC3CC3)n1)CCN(C(=O)C(C)(C)O)CC2
Return: -1.94

Enquiry: Please look up its Percent Effect: CC(O)CN1CCN(Cc2csc(-c3ncccn3)n2)CC1 (configuration not stated)
Return: -4.73

Enquiry: Please look up its Percent Effect: CCn1cnnc1CNC(=O)NC(C)c1cccs1 (configuration not stated)
Return: -8.5

Enquiry: Please look up its Percent Effect: CCC1=N[C@@]2(CC[C@@H]3CN(S(=O)(=O)N(C)C)C[C@@H]32)C(=O)N1CC(C)C
Return: -6.8

Enquiry: Please look up its Percent Effect: CN(C)C(=O)CN1CCC2(CCN(Cc3nccs3)CC2)C1=O
Return: -7.73

Enquiry: Please look up its Percent Effect: COc1cc(NC(=O)c2ccccc2F)c(C(=O)N(C)C)cc1OC
Return: -2.46

Enquiry: Please look up its Percent Effect: CC(C)N1CCC(NCc2cccnc2N(C)Cc2ccccc2)CC1
Return: -5.77

Enquiry: Please look up its Percent Effect: O=C(CC1CCCC1)N1CCCC(c2n[nH]c3nccnc23)C1 (configuration not stated)
Return: -9.36

Enquiry: Please look up its Percent Effect: N#Cc1ccc(OC2CCN(C(=O)c3ccc4c(c3)OCO4)CC2)nc1
Return: -2.59

Enquiry: Please look up its Percent Effect: CNS(=O)(=O)c1cccc(C(C)NCc2nccn2C(C)C)c1 (configuration not stated)
Return: 2.31

Enquiry: Please look up its Percent Effect: CCCn1ncc(CN2C[C@@H]3CCCN3C[C@@H]2CCSC)c1C
Return: -15

Enquiry: Please look up its Percent Effect: Cc1cnn(CCNCc2csc(C)n2)c1
Return: 0.841

Enquiry: Please look up its Percent Effect: O=C(CCC1CCCC1)NCCn1nc(C2CCNC2)c2nccnc21 (configuration not stated)
Return: -19.5

Enquiry: Please look up its Percent Effect: Cc1nn(C)c(Cl)c1C1CCCN1C(=O)c1cc[nH]n1 (configuration not stated)
Return: -9.56

Enquiry: Please look up its Percent Effect: COc1cccc(C2CCCN2C(=O)c2cc3c([nH]c2=O)CCC3)c1 (configuration not stated)
Return: -6.8

Enquiry: Please look up its Percent Effect: O=C(NC1CC1)[C@@H]1CCO[C@@H]2CCN(Cc3ccsc3)C[C@H]21
Return: 7.56

Enquiry: Please look up its Percent Effect: Cc1cc(C)cc(C2(C(=O)N3CCCC(n4cncn4)C3)CC2)c1 (configuration not stated)
Return: -6.26

Enquiry: Please look up its Percent Effect: c1ncn(CC2CCCCN2Cc2csc(C3CCCC3)n2)n1 (configuration not stated)
Return: 66.7

Enquiry: Please look up its Percent Effect: COc1ccc(CN2C[C@@H](OCc3ccccn3)[C@H]3COC[C@H]32)cc1
Return: 2.02

Enquiry: Please look up its Percent Effect: Cc1cccnc1NC(=O)NCc1ccc(N2CCNC(=O)C2)cc1
Return: -8.16

Enquiry: Please look up its Percent Effect: CN(Cc1nc(-c2ccco2)no1)C1CCCN(c2cccnn2)C1 (configuration not stated)
Return: -10.1

Enquiry: Please look up its Percent Effect: COCCC(=O)N1CCC2(COCc3cnc(N4CCOCC4)nc32)C1 (configuration not stated)
Return: -0.906

Enquiry: Please look up its Percent Effect: Cc1ccc(N2CCCC(NCC(=O)Nc3cc(C)no3)C2)nn1 (configuration not stated)
Return: -23.2

Enquiry: Please look up its Percent Effect: COc1cccc2cc(CNC(C)(C)C(=O)N3CCC(O)CC3)oc12
Return: -3.05

Enquiry: Please look up its Percent Effect: O=C(NC1CCC1)[C@@H]1C[C@@H]2CCN(Cc3cccs3)C[C@@H]2O1
Return: -2.54

Enquiry: Please look up its Percent Effect: Cc1ccc(-c2cc(N)c(=O)n(CC(=O)NCC3CC3)n2)s1
Return: -14.1

Enquiry: Please look up its Percent Effect: CC(NC(=O)NCC1(c2ccc(F)cc2)CCC1)c1nncn1C (configuration not stated)
Return: 2.89

Enquiry: Please look up its Percent Effect: CNC(=O)[C@H]1CO[C@H]2CCN(Cc3ccc4ccccc4n3)C[C@H]2C1
Return: 1.01

Enquiry: Please look up its Percent Effect: O=S1(=O)COCCN1Cc1cccc(Cl)c1
Return: -2.28

Enquiry: Please look up its Percent Effect: CC(C)c1n[nH]c(C2CN(Cc3nnc(C4CC4)o3)CCO2)n1 (configuration not stated)
Return: -1.54

Enquiry: Please look up its Percent Effect: Cn1c2c(ccc1=O)CC(NS(C)(=O)=O)CC2 (configuration not stated)
Return: -1.57

Enquiry: Please look up its Percent Effect: CCn1cc(N2Cc3nc(N)ncc3C2=O)cn1
Return: -15.1

Enquiry: Please look up its Percent Effect: Cc1nn(-c2ccccc2)nc1C(=O)N1CCCC1c1cnn(C)c1 (configuration not stated)
Return: 7.07

Enquiry: Please look up its Percent Effect: Cc1noc(C)c1-c1cccc(CC2CCN(C(=O)c3cc[nH]n3)C2)n1 (configuration not stated)
Return: -0.89

Enquiry: Please look up its Percent Effect: CS(=O)(=O)NCCCN1CCCC1Cc1ccccc1 (configuration not stated)
Return: -3.37

Enquiry: Please look up its Percent Effect: Cc1ncc(CNC2CCCN(Cc3noc(C4CC4)n3)C2)s1 (configuration not stated)
Return: -8.72

Enquiry: Please look up its Percent Effect: CNc1cncc(C2CCCN2Cc2ccccn2)n1 (configuration not stated)
Return: -18.3

Enquiry: Please look up its Percent Effect: CCOc1ccc(NC(=O)NCc2csc(NC)n2)cc1C
Return: -3.54

Enquiry: Please look up its Percent Effect: Cn1cc(N2CC3(CCN(S(=O)(=O)C4CC4)C3)CC2=O)cn1 (configuration not stated)
Return: -13.5
